target: SIRT1 (Homo sapiens, UniProt Q96EB6); assay: Trp mass spectrometry assay (SIRT1 activation); assay type: biochemical; settings: Trp mass spectrometry assay; EC1.5 = concentration of test compound that results in 150% activation of SIRT1
Sequence (Q96EB6 whole entry): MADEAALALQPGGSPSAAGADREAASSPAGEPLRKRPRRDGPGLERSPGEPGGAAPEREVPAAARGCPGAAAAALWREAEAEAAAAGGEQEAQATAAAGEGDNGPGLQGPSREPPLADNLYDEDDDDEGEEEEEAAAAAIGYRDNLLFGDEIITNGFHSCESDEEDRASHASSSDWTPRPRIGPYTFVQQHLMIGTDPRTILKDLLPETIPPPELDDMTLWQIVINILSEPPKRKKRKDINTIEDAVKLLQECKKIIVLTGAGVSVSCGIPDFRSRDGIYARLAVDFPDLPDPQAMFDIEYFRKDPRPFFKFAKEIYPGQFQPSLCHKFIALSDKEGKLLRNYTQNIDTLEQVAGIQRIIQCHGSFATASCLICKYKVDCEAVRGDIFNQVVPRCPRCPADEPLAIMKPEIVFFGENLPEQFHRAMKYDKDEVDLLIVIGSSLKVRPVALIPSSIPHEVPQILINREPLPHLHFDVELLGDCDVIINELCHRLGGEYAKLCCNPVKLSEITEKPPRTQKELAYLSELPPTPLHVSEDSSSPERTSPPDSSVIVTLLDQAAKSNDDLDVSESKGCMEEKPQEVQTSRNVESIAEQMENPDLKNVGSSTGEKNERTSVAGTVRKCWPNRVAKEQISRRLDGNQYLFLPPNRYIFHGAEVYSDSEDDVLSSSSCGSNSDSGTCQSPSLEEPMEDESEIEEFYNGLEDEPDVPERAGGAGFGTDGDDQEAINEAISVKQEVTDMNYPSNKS
RECORDED_ENDPOINT: Tryp AVG EC1.5 (μM)

Recorded results for 10 compounds are shown here.
COc1cc(NC(=O)N2c3nc(-c4cccc(C#N)c4)ccc3N3CCC[C@@H]2C3)ncn1	C (EC1.5>25 μM)
Cn1cc2cc(NC(=O)N3c4nc(-c5cccc(Cl)c5)ccc4N4CC[C@H]3C4)ccc2n1	A (EC1.5<1 μM)
COc1nccc(NC(=O)N2c3nc(-c4cccc(C(F)(F)F)c4)ccc3N3CCC2CC3)n1	B (EC1.5 1-25 μM)
COc1cc(NC(=O)N2c3nc(-c4ccccc4C(F)(F)F)ccc3N3CC[C@H]2C3)ncn1	C (EC1.5>25 μM)
O=C(Nc1ccncc1Cl)N1c2nc(-c3cccc(C(F)(F)F)c3)ccc2N2CC[C@H]1C2	B (EC1.5 1-25 μM)
O=C(Nc1ccncn1)N1c2nc(-c3cccc(N4CCCC4)c3)ccc2N2CC[C@H]1C2	B (EC1.5 1-25 μM)
COc1nccc(NC(=O)N2c3nc(-c4cccc(OC(F)(F)F)c4)ccc3N3CC[C@H]2C3)n1	A (EC1.5<1 μM)
O=C(Nc1ccccn1)N1c2nc(-c3cccc(N4CCCC4)c3)ccc2N2CC[C@H]1C2	A (EC1.5<1 μM)
Cc1nc(NC(=O)N2c3nc(-c4cccc(OC(F)(F)F)c4)ccc3N3CC[C@H]2C3)sc1C	A (EC1.5<1 μM)
COc1cc(NC(=O)N2c3nc(-c4cccc(N5CCCC5)c4)ccc3N3CC[C@H]2C3)ncn1	B (EC1.5 1-25 μM)

Lookup result for "Cc1nc(NC(=O)N2c3nc(-c4cccc(C#N)c4)ccc3N3CC[C@H]2C3)sc1C" ; measured Tryp AVG EC1.5 (μM): A (EC1.5<1 μM)

Measured Tryp AVG EC1.5 (μM) of "O=C(Nc1ccc(F)cn1)N1c2nc(-c3cccc(C(F)(F)F)c3)ccc2N2CC[C@@H]1C2" : B (EC1.5 1-25 μM)

Tryp AVG EC1.5 (μM) reading for "O=C(Nc1cccnn1)N1c2nc(-c3cccc(C(F)(F)F)c3)ccc2N2CCC[C@@H]1C2" : B (EC1.5 1-25 μM)

Form: compound = "O=C(Nc1ccc(F)cn1)N1c2nc(-c3cccc(Cl)c3)ccc2N2CCC[C@H]1C2" ; Tryp AVG EC1.5 (μM) = A (EC1.5<1 μM)

Data point: "Cn1ccc(NC(=O)N2c3nc(-c4cccc(N5CCCC5)c4)ccc3N3CC[C@H]2C3)n1" ; Tryp AVG EC1.5 (μM) = B (EC1.5 1-25 μM)

Lab note: "Cc1cnc2c(NC(=O)N3c4nc(-c5cccc(C(F)(F)F)c5)ccc4N4CC[C@H]3C4)cccc2n1" gave Tryp AVG EC1.5 (μM) of A (EC1.5<1 μM)

According to the records, this compound "Cc1nc(NC(=O)N2c3nc(-c4cccc(C(F)(F)F)c4)ccc3N3CCC2CC3)sc1C" displays Tryp AVG EC1.5 (μM) of A (EC1.5<1 μM)

Measured Tryp AVG EC1.5 (μM) of "O=C(Nc1cccnn1)N1c2nc(-c3cccc(C(F)(F)F)c3)ccc2N2CCC1CC2" : B (EC1.5 1-25 μM)

Item: O=C(Nc1ccc(F)cn1)N1c2nc(C3CCCC(C(F)(F)F)C3)ccc2N2CC[C@H]1C2 (stereo partly shown) | Tryp AVG EC1.5 (μM): B (EC1.5 1-25 μM)

So, O=C(Nc1cccc(-c2cnco2)c1)N1c2nc(N3CCCC(C(F)(F)F)C3)ccc2N2CC[C@H]1C2 (stereo partly shown) ? Its Tryp AVG EC1.5 (μM) was A (EC1.5<1 μM)

// sample "N#Cc1cccc(-c2ccc3c(n2)N(C(=O)Nc2ccc(F)cn2)[C@H]2CCN3C2)c1" , its Tryp AVG EC1.5 (μM) was A (EC1.5<1 μM)

Form field Tryp AVG EC1.5 (μM), entry "O=C(Nc1ccc(F)cn1)N1c2nc(-c3cccc(OC(F)(F)F)c3)ccc2N2CC[C@H]1C2" : A (EC1.5<1 μM)
